System: Escherichia coli TOP10;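 also: peptides expressed intracellularly from a pBAD plasmid library in pooled LB shake-flask culture, induced with 0.3% L-arabinose, DNA abundance read by NGS, three biological replicates, DESeq2 with apeglm shrinkage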
Assay: shrunken log2 fold change of peptide-encoding DNA abundance (4.5 h post-induction vs induction); higher = less antimicrobial activity (less host growth inhibition)
Settings: time post-induction: 4.5 h; library: site-saturation at positions 5, 18, 19, 20
Where shrunken log2 fold change equals or exceeds -0.08, the correct label is true (1); where it does not, the label is false (0).

>>> assigned_class("RRIRSRPPRLPRPRPRPSAYPRP")
"true (1)"

## Input Could you tell me if the measured shrunken log2 fold change of RRIRKRPPRLPRPRPRPHYRPRP reaches -0.08 or more?
## Output true (1)

## Input State whether the measured shrunken log2 fold change reaches -0.08, counting equality as reaching it, for RRIRTRPPRLPRPRPRPFYNPRP
## Output false (0)

## Input Please indicate if the recorded shrunken log2 fold change for RRIRWRPPRLPRPRPRPFTAPRP meets or exceeds -0.08.
## Output true (1)

## Input Is it the case that RRIRIRPPRLPRPRPRPSQWPRP has shrunken log2 fold change reaching or exceeding -0.08?
## Output false (0)

## Input Has RRIRPRPPRLPRPRPRPQDPPRP a recorded shrunken log2 fold change greater than or equal to -0.08?
## Output false (0)

## Input # check: shrunken log2 fold change of RRIRTRPPRLPRPRPRPLQDPRP is greater than or equal to -0.08
## Output true (1)

## Input Please check the record RRIRNRPPRLPRPRPRPCASPRP and state if its shrunken log2 fold change is at or above -0.08.
## Output false (0)

## Input Could you please find out whether RRIRFRPPRLPRPRPRPSWKPRP has shrunken log2 fold change that meets -0.08 or exceeds it?
## Output true (1)

## Input Kindly determine if shrunken log2 fold change recorded for RRIRYRPPRLPRPRPRPLYAPRP is above or exactly -0.08.
## Output false (0)

## Input Decide: is the reported value of shrunken log2 fold change for RRIRARPPRLPRPRPRPQTHPRP equal to or greater than -0.08?
## Output true (1)

## Input Does the sequence RRIRPRPPRLPRPRPRPADSPRP have recorded shrunken log2 fold change that is -0.08 or more?
## Output true (1)

## Input Threshold query (shrunken log2 fold change >= -0.08) on RRIRMRPPRLPRPRPRPKVHPRP
## Output false (0)

## Input # bool: shrunken log2 fold change of RRIRIRPPRLPRPRPRPKANPRP >= -0.08
## Output false (0)
